Origin of the recorded values: paper PMC10397247

- test-system: T1, 4H2518-bH
- T1 chain: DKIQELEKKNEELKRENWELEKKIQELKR
- test-description: two-hybrid library CCNG1;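 also: natural log of median RNA to DNA barcode read ratio; higher means stronger binding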
Each entry below lists one item and its recorded interaction score value.
// no unit, no text: just the number

DKIQELEKEIEELKRKNWELEKEIQELKR [4H2162-bH] | 1

Need interaction score, item DKIQELEKKNEELKRENWELEKKIQELKR [4H2518-bH]
1

Bench note: what interaction score did DKIQELEKENEELERKNWELKKEIQELER [4H2233-bH] show?
1.4

Record request: interaction score value, item DKIQELEKEIEELKRENWELKKKNQELER [4H2143-bH]
0.15
